testDetails: Lipophilicity, logD of compound at pH 7.4
Type: physicochemical
setupConditions: buffer, read-out: logD
valueType: logD

>>> measurement("Cc1cc(=O)c(O)cc2c1C[C@H]1C[C@H](OC(=O)CCC(=O)O)[C@@]3(C)Oc4cc(O)c(=O)ccc4C[C@H]3CC(C)(C)/C=C/C[C@]1(C)O2")
1
>>> measurement("COCCOC(=O)Oc1cc2c(c(C)cc1=O)C[C@H]1C[C@H](O)[C@@]3(C)Oc4cc(O)c(=O)ccc4C[C@H]3CC(C)(C)/C=C/C[C@]1(C)O2")
4.3
>>> measurement("CC(=O)Oc1cc2c(ccc1=O)C[C@H]1CC(C)(C)/C=C/C[C@]3(C)Oc4cc(OC(C)=O)c(=O)cc(C)c4C[C@H]3C[C@H](O)[C@@]1(C)O2")
4.6
>>> measurement("Cc1cc(=O)c(OCc2ccccc2)cc2c1C[C@H]1C[C@H](O)[C@@]3(C)Oc4cc(OCc5ccccc5)c(=O)ccc4C[C@H]3CC(C)(C)/C=C/C[C@]1(C)O2")
7.5
>>> measurement("Cc1cc(=O)c(OC(=O)C2CC2)cc2c1C[C@H]1C[C@H](O)[C@@]3(C)Oc4cc(OC(=O)C5CC5)c(=O)ccc4C[C@H]3CC(C)(C)/C=C/C[C@]1(C)O2")
5.3
>>> measurement("CCN(CC)C(=O)Oc1cc2c(ccc1=O)C[C@H]1CC(C)(C)/C=C/C[C@]3(C)Oc4cc(OC(=O)N(CC)CC)c(=O)cc(C)c4C[C@H]3C[C@H](O)[C@@]1(C)O2")
5.9
>>> measurement("CC(=O)Oc1cc2c(ccc1=O)C[C@H]1CC(C)(C)/C=C/C[C@]3(C)Oc4cc(OC(C)=O)c(=O)cc(C)c4C[C@H]3C[C@H](OC(C)=O)[C@@]1(C)O2")
5.5
>>> measurement("Cc1cc(=O)c(OC(=O)C(C)(C)C)cc2c1C[C@H]1C[C@H](O)[C@@]3(C)Oc4cc(OC(=O)C(C)(C)C)c(=O)ccc4C[C@H]3CC(C)(C)/C=C/C[C@]1(C)O2")
6.9
>>> measurement("COCCOC(=O)Oc1cc2c(ccc1=O)C[C@H]1CC(C)(C)/C=C/C[C@]3(C)Oc4cc(OC(=O)OCCOC)c(=O)cc(C)c4C[C@H]3C[C@H](O)[C@@]1(C)O2")
4.6

----------
testDetails: Relative solubility of compound by measuring ratio of solubility of compound to solubility of Eupenifeldin
Format: physicochemical
The following compounds are listed with their measured Ratio values.
valueType: Ratio

>>> measurement("Cc1cc(=O)c(OC(=O)C2CC2)cc2c1C[C@H]1C[C@H](O)[C@@]3(C)Oc4cc(OC(=O)C5CC5)c(=O)ccc4C[C@H]3CC(C)(C)/C=C/C[C@]1(C)O2")
"5 10^-3No_unit"
>>> measurement("CCN(CC)C(=O)Oc1cc2c(ccc1=O)C[C@H]1CC(C)(C)/C=C/C[C@]3(C)Oc4cc(OC(=O)N(CC)CC)c(=O)cc(C)c4C[C@H]3C[C@H](O)[C@@]1(C)O2")
"2 10^-2No_unit"
>>> measurement("Cc1cc(=O)c(OCc2ccccc2)cc2c1C[C@H]1C[C@H](O)[C@@]3(C)Oc4cc(OCc5ccccc5)c(=O)ccc4C[C@H]3CC(C)(C)/C=C/C[C@]1(C)O2")
"2 10^-4No_unit"
>>> measurement("Cc1cc(=O)c(OC(=O)C(C)(C)C)cc2c1C[C@H]1C[C@H](O)[C@@]3(C)Oc4cc(OC(=O)C(C)(C)C)c(=O)ccc4C[C@H]3CC(C)(C)/C=C/C[C@]1(C)O2")
"6 10^-3No_unit"
>>> measurement("COCCOC(=O)Oc1cc2c(c(C)cc1=O)C[C@H]1C[C@H](O)[C@@]3(C)Oc4cc(O)c(=O)ccc4C[C@H]3CC(C)(C)/C=C/C[C@]1(C)O2")
0.4

----------
Test system: OVCAR-3
testDetails: Cytotoxicity against human OVCAR-3 cells treated for 72 hrs
Type: functional, cell-based
setupConditions: OVCAR-3, 72 h
The following compounds are listed with their measured log10 of IC50 values.
valueType: log10 of IC50 (log10 of the value in nM)

>>> measurement("CCN(CC)C(=O)Oc1cc2c(ccc1=O)C[C@H]1CC(C)(C)/C=C/C[C@]3(C)Oc4cc(OC(=O)N(CC)CC)c(=O)cc(C)c4C[C@H]3C[C@H](O)[C@@]1(C)O2")
2.28
>>> measurement("Cc1cc(=O)c(OC(=O)N(c2ccccc2)c2ccccc2)cc2c1C[C@H]1C[C@H](O)[C@@]3(C)Oc4cc(OC(=O)N(c5ccccc5)c5ccccc5)c(=O)ccc4C[C@H]3CC(C)(C)/C=C/C[C@]1(C)O2")
2.36
>>> measurement("CC(=O)Oc1cc2c(ccc1=O)C[C@H]1CC(C)(C)/C=C/C[C@]3(C)Oc4cc(OC(C)=O)c(=O)cc(C)c4C[C@H]3C[C@H](OC(C)=O)[C@@]1(C)O2")
2.29
>>> measurement("Cc1cc(=O)c(OC(=O)C(C)(C)C)cc2c1C[C@H]1C[C@H](O)[C@@]3(C)Oc4cc(OC(=O)C(C)(C)C)c(=O)ccc4C[C@H]3CC(C)(C)/C=C/C[C@]1(C)O2")
2.15
>>> measurement("CC(=O)O[C@H]1C(=O)[C@@]2(C)[C@H]([C@H](OC(=O)c3ccccc3)[C@]3(O)C[C@H](OC(=O)[C@H](O)[C@@H](NC(=O)c4ccccc4)c4ccccc4)C(C)=C1C3(C)C)[C@]1(OC(C)=O)CO[C@@H]1C[C@@H]2O")
-1.00
>>> measurement("COCCOC(=O)Oc1cc2c(c(C)cc1=O)C[C@H]1C[C@H](O)[C@@]3(C)Oc4cc(O)c(=O)ccc4C[C@H]3CC(C)(C)/C=C/C[C@]1(C)O2")
1.88
>>> measurement("Cc1cc(=O)c(O)cc2c1C[C@H]1C[C@H](OC(=O)CCC(=O)O)[C@@]3(C)Oc4cc(O)c(=O)ccc4C[C@H]3CC(C)(C)/C=C/C[C@]1(C)O2")
2.20
